Property: intrinsic clearance, rat liver microsomes (mL/min/kg)
Answers are plain numbers, in mL/min/kg.

CCc1nnsc1C(=O)Nc1cccc(-c2nnc3n2CCCCC3)c1 : 142

List reported intrinsic clearance, rat liver microsomes for each of these compounds:
1. CC(C)c1ccc(CN2CCN(C(=O)C3CCN(C(=O)C4CC4)CC3)CC2)cc1
2. CN1CCC(Cc2cccc(-c3nccs3)n2)C1 (stereo not drawn)
3. CC(=O)N1CCC2(C=Cc3cc(C)c(C)cc3O2)CC1
4. COc1ncccc1CNc1c(C#N)cnc2c(C)cc(F)cc12
5. c1cc2c(N3CCNCC3)nc(-c3ccnc(NC4CCCCC4)c3)cc2cn1

Outgoing:
379
2030
1020
1250
260

List reported intrinsic clearance, rat liver microsomes for each of these compounds:
1. CN(C)C(=O)C1(Cc2ccccc2-c2ccccc2)CCN(C(=O)c2cnn(C)c2)CC1
2. CS(=O)(=O)N(CC(=O)Nc1ccccc1C(=O)NCc1ccco1)c1ccc(F)cc1
3. CC1CCN([C@H](c2ccc(F)cc2)c2ccc([C@@H](C)C(=O)O)cc2-c2ccc(C(F)(F)F)cc2)CC1

Outgoing:
1. 1250
2. 1110
3. 17.7

List reported intrinsic clearance, rat liver microsomes for each of these compounds:
1. Cc1cc(SCc2ccc(Cl)nc2)nc2ccccc12
2. CC(C)n1nnnc1-c1ccc(N)cc1F

Outgoing:
1: 1380; 2: 40.2

* * *

Would you mind telling me the reported intrinsic clearance, rat liver microsomes of each entry?
Numbers only, in mL/min/kg.

Clc1ccccc1CNCc1ccc2c(c1)OCCO2 : 2170

List reported intrinsic clearance, rat liver microsomes for each of these molecules:
1. Cc1cccc(C)c1OCC(=O)N(C)[C@@H]1CCC[C@@H](O)[C@@H]1O
2. N#Cc1cccc(-c2ccc(=O)n3c2[C@@H]2C[C@@H](CN(Cc4ccc(F)cc4)C2)C3)c1
3. COc1ccc2c(c1)C=C(CN1CCC(c3cc(-c4ccc(N)nc4)cc(C)n3)CC1)CO2
4. Clc1ccc2c(NCCN3CCOCC3)ncnc2c1

Outgoing:
155
1470
169
213

* * *

Property: MDR1-MDCK efflux ratio
Answers are plain numbers.

List reported MDR1-MDCK efflux ratio for each of these compounds:
1. Cc1ccc(-n2nc(NCc3cnn(C)c3)cc2C)cc1
2. Cc1ccccc1CNC(=O)c1ccc(-n2ccnc2)nc1
3. Cc1ccc(CCNC(=O)c2ccncc2)o1

Outgoing:
0.727
0.867
0.705

* * *

Would you mind telling me the reported intrinsic clearance, rat liver microsomes of each entry?

O=C(NCc1ccc(CN2CCS(=O)(=O)CC2)cc1)c1ccon1 : ≤ 10.7 mL/min/kg

List reported intrinsic clearance, rat liver microsomes for each of these compounds:
1. CNC(=O)CCc1nc(-c2ccccn2)no1
2. CCc1nc2ccccc2n1CC(=O)N1CCNC(=O)C1

Outgoing:
1: ≤ 10.7 mL/min/kg; 2: ≤ 10.7 mL/min/kg

* * *

Would you mind telling me the reported MDR1-MDCK efflux ratio of each entry?
Give bare numbers.

Cc1cc(N(C)C)nc(-n2ccnc2)n1 : 0.704

List reported MDR1-MDCK efflux ratio for each of these molecules:
1. CC(C)CN1C(=O)C(=O)N(Cc2ccccn2)C1=O
2. Cc1sc(NC(=O)CN2CCOC(C3CCCO3)C2)c(C)c1C (stereo not drawn)

Outgoing:
1: 0.838; 2: 1
